System: IFNγ-induced NO production in RAW 264.7 cells
Experiment: Nitric Oxide Suppression Assay (IFNγ-induced NO, Griess nitrite readout)
Type: cell-based, mouse
Settings: Mus musculus, RAW264.7, Table 2; RAW 264.7 cells, 2 h pretreatment, 20 ng/mL interferon gamma 24 h; read-out: Avg NO IC50 (nM) (Mean ± SD)
readout_label: IC50 (nM)

query_smiles: CC(=O)N[C@]12CC[C@@H](C)[C@H](C)[C@H]1[C@H]1C(=O)C=C3[C@@]4(C)C=C(C#N)C(=O)C(C)(C)[C@@H]4CC[C@@]3(C)[C@]1(C)CC2
IC50 / nM: 23

P: Cc1cn(C[C@]23CC[C@@H](C)[C@H](C)[C@H]2[C@H]2C(=O)C=C4[C@@]5(C)C=C(C#N)C(=O)C(C)(C)[C@@H]5CC[C@@]4(C)[C@]2(C)CC3)nn1
Q: CNC(=O)CC[C@]12CC[C@@H](C)[C@H](C)[C@H]1[C@H]1C(=O)C[C@@H]3[C@@]4(C)C=C(C#N)C(=O)C(C)(C)[C@@H]4CC[C@@]3(C)[C@]1(C)CC2
R: C[C@@H]1[C@H]2[C@H]3C(=O)C=C4[C@@]5(C)C=C(C#N)C(=O)C(C)(C)[C@@H]5CC[C@@]4(C)[C@]3(C)CC[C@@]2(n2cccn2)CC[C@H]1C
S: C[C@@H]1[C@H]2[C@H]3C(=O)C=C4[C@@]5(C)C=C(C#N)C(=O)C(C)(C)[C@@H]5CC[C@@]4(C)[C@]3(C)CC[C@@]2(CNC(=O)C(F)F)CC[C@H]1C
Rank by IC50 (largest to smallest). To answer, arrange all of the labels according to the requested order.
R, Q, P, S

====

Test system: IFNγ-induced NO production in RAW 264.7 cells
Assay: Nitric Oxide Suppression Assay (IFNγ-induced NO, Griess nitrite readout)
Format: cell-based, mouse
Settings: Table 2; ratio to RTA402
readout_label: Avg NO IC50 Relative to RTA402 (fold)

Check out these entries, answers already filled in.
compound: COCCc1noc([C@]23CC[C@@H](C)[C@H](C)[C@H]2[C@H]2C(=O)C=C4[C@@]5(C)C=C(C#N)C(=O)C(C)(C)[C@@H]5CC[C@@]4(C)[C@]2(C)CC3)n1 [Compound T7]
target_or_system: IFNγ-induced NO production in RAW 264.7 cells
Avg NO IC50 Relative to RTA402 (fold): 1.62
--
compound: CONC(=O)[C@]12CC[C@@H](C)[C@H](C)[C@H]1[C@H]1C(=O)C=C3[C@@]4(C)C=C(C#N)C(=O)C(C)(C)[C@@H]4CC[C@@]3(C)[C@]1(C)CC2 [Compound T73]
target_or_system: IFNγ-induced NO production in RAW 264.7 cells
Avg NO IC50 Relative to RTA402 (fold): 7.02
--
compound: C[C@@H]1[C@H]2[C@H]3C(=O)C=C4[C@@]5(C)C=C(C#N)C(=O)C(C)(C)[C@@H]5CC[C@@]4(C)[C@]3(C)CC[C@@]2(c2nc(COC(C)(C)C)no2)CC[C@H]1C [Compound T9]
target_or_system: IFNγ-induced NO production in RAW 264.7 cells
Avg NO IC50 Relative to RTA402 (fold): 5.37
--
compound: C[C@@H]1[C@H]2[C@H]3C(=O)C=C4[C@@]5(C)C=C(C#N)C(=O)C(C)(C)[C@@H]5CC[C@@]4(C)[C@]3(C)CC[C@@]2(CN2CCN(C)C2=O)CC[C@H]1C [Compound T44]
target_or_system: IFNγ-induced NO production in RAW 264.7 cells
Avg NO IC50 Relative to RTA402 (fold): 2.03
--
compound: CC(=N)NOC(=O)[C@]12CC[C@@H](C)[C@H](C)[C@H]1[C@H]1C(=O)C=C3[C@@]4(C)C=C(C#N)C(=O)C(C)(C)[C@@H]4CC[C@@]3(C)[C@]1(C)CC2 [Compound T107]
target_or_system: IFNγ-induced NO production in RAW 264.7 cells
Avg NO IC50 Relative to RTA402 (fold): 7.07
--
compound: C[C@@H]1[C@H]2[C@H]3C(=O)C=C4[C@@]5(C)C=C(C#N)C(=O)C(C)(C)[C@@H]5CC[C@@]4(C)[C@]3(C)CC[C@@]2(O)CC[C@H]1C [Compound T68]
target_or_system: IFNγ-induced NO production in RAW 264.7 cells
Avg NO IC50 Relative to RTA402 (fold): 2.70
--
compound: CC(=O)N(C)C[C@]12CC[C@@H](C)[C@H](C)[C@H]1[C@H]1C(=O)C=C3[C@@]4(C)C=C(C#N)C(=O)C(C)(C)[C@@H]4CC[C@@]3(C)[C@]1(C)CC2 [Compound T35]
target_or_system: IFNγ-induced NO production in RAW 264.7 cells
Avg NO IC50 Relative to RTA402 (fold): 1.66
--
compound: [2H]C([2H])([2H])C(=O)NC[C@]12CC[C@@H](C)[C@H](C)[C@H]1[C@H]1C(=O)C=C3[C@@]4(C)C=C(C#N)C(=O)C(C)(C)[C@@H]4CC[C@@]3(C)[C@]1(C)CC2 [Compound T24]
target_or_system: IFNγ-induced NO production in RAW 264.7 cells
Avg NO IC50 Relative to RTA402 (fold): 0.967
--
compound: C[C@@H]1[C@H]2[C@H]3C(=O)C[C@@H]4[C@@]5(C)C=C(C#N)C(=O)C(C)(C)[C@@H]5CC[C@@]4(C)[C@]3(C)CC[C@@]2(CNC(=O)OC(C)(C)C)CC[C@H]1C [Compound T106]
target_or_system: IFNγ-induced NO production in RAW 264.7 cells
Avg NO IC50 Relative to RTA402 (fold): 37.4
--
compound: C[C@@H]1[C@H]2[C@H]3C(=O)C=C4[C@@]5(C)C=C(C#N)C(=O)C(C)(C)[C@@H]5CC[C@@]4(C)[C@]3(C)CC[C@@]2(CC(=O)O)CC[C@H]1C [Compound T89]
target_or_system: IFNγ-induced NO production in RAW 264.7 cells
Avg NO IC50 Relative to RTA402 (fold): 8.03

I: C[C@@H]1[C@H]2[C@H]3C(=O)C=C4[C@@]5(C)C=C(C#N)C(=O)C(C)(C)[C@@H]5CC[C@@]4(C)[C@]3(C)CC[C@@]2(CN2CCNC2=O)CC[C@H]1C [Compound T45]
II: CC(=O)NC[C@]12CC[C@@H](C)[C@H](C)[C@H]1[C@H]1C(=O)C=C3[C@@]4(C)C=C(C#N)C(=O)C(C)(C)[C@@H]4CC[C@@]3(C)[C@]1(C)CC2 [Compound T22]
Choose between I and II : whose measured Avg NO IC50 Relative to RTA402 (fold) value is numerically larger? Indicate your choice by writing its label.
I
(I: 3.22 fold, II: 0.94 fold)
